For each of the compounds below, state its MIC, SA.
# Tested on: S. aureus ATCC 13709
# test.summary: MIC, antibacterial potency, S. aureus
# Format: cell-based
# experimental.context: S. aureus (SA); in µg/mL
// no unit, no text: just the number

Qu. Entry under review: `CCc1[nH]c2nc(Sc3cc(OC)c4c(N)nc(C)nc4c3)nc(N3CC[C@@H](N)C3)c2c1Cl` . Reported MIC, SA?
Ans. 8

Qu. Entry CCc1[nH]c2nc(Sc3ccc4nc(N5CC(N)C5)cnc4c3)nc(N3C[C@@H]4C(N)[C@@H]4C3)c2c1Cl (some centres unmarked) has what MIC, SA?
Ans. 1

Qu. Can you share its MIC, SA? I mean this compound: `CCc1[nH]c2nc(Oc3cncnc3)nc(Oc3cccc(CNC)c3)c2c1Cl`
Ans. 1

Qu. For `CCc1[nH]c2nc(Sc3cnc4c(=N)n(CCCN(C)C)c(C)nc4c3)nc(N3CC[C@@H](N)C3)c2c1Cl` , what is its reported MIC, SA?
Ans. 16

Qu. // returns reported MIC, SA for input `CCc1[nH]c2nc(Sc3cnc4cccnc4c3)nc(N3C[C@H](C(=O)NC4CNC4)[C@@H](N)C3)c2c1Cl`
Ans. 32

====

# Tested on: S. aureus ATCC 13709
# test.summary: MIC, antibacterial potency, S. aureus
# Format: cell-based
# experimental.context: S. aureus (SA); in µg/mL
test.readout: MIC, SA
// no unit, no text: just the number

Qu. Would you kindly share the measured MIC, SA for CCc1[nH]c2nc(Oc3cncnc3)nc(N3CC4C(N)C4C3)c2c1Cl (stereo not shown) ?
Ans. 1

Qu. What MIC, SA value was documented for this compound, `CCc1[nH]c2nc(Oc3cncnc3)nc(Oc3ccc4nccnc4c3)c2c1C` ?
Ans. 1.

Qu. Data request, read-out MIC, SA, for `CCc1[nH]c2nc(Sc3cnc4c(c3)OCCN4C)nc(N3CC(N)C3)c2c1Cl.O=C(O)C(F)(F)F`
Ans. 16

Qu. So what does the record say about MIC, SA for `C=CCc1nc(Oc2ccc(Cl)c(C#N)c2)nc2[nH]c(CC)c(Cl)c12` ?
Ans. 4

Qu. Please look up its MIC, SA: `CCc1[nH]c2nc(Oc3cnc4c(c3)ncn4C)nc(N3CC[C@@H](NC(C)=O)C3)c2c1Br`
Ans. 8

Qu. Fill in: MIC, SA of `CCc1[nH]c2nc(Sc3ccc4c(N5CC(CN)C5)cc(C(F)(F)F)nc4c3)nc(N3CC[C@@H](N)C3)c2c1Cl` is ___
Ans. 4

Qu. Which MIC, SA value belongs to `CCc1[nH]c2nc(Sc3cnc(N4CCC4)c([N+](=O)[O-])c3)nc(N3CC[C@@H](N)C3)c2c1Cl` ?
Ans. 2

Qu. For `CCc1[nH]c2nc(Sc3ccc4cc5c(nc4c3)CCNC5)nc(N3CC[C@@H](N)C3)c2c1Cl` , what is its reported MIC, SA?
Ans. 4

Qu. What value of MIC, SA has been reported for the following compound? `CCc1[nH]c2nc(Sc3cnc4cccnc4c3)nc(N3C[C@H](N)[C@H](C(=O)NCc4cccnc4)C3)c2c1Cl`
Ans. 4

====

Can you tell me MIC, SA for the items I'm about to list?
# Test system: S. aureus ATCC 13709
# test.summary: MIC, antibacterial potency, S. aureus
# Assay type: cell-based
# experimental.context: S. aureus (SA); in µg/mL
Answer field: number only, no words.

Qu. Report MIC, SA for CCc1[nH]c2nc(Sc3cnc4nccnc4c3)nc(N3CCC(CC)(NC(=O)C(F)(F)F)C3)c2c1Cl (stereo not shown) please.
Ans. 4

Qu. I am curious: what MIC, SA value has been reported for CCOC(=O)C(=O)NCC1CCN(c2nc(Sc3cnc4cccnc4c3)nc3[nH]c(CC)c(Cl)c23)C1 (stereo not shown) ?
Ans. 1

Qu. Record request: MIC, SA value, item `CCc1[nH]c2nc(Oc3cncc(C(N)=O)c3)nc(C)c2c1Cl`
Ans. 2

Qu. # MIC, SA lookup, item `C=Cc1nc(Oc2cccc(C#N)c2)nc2[nH]c(CC)c(Cl)c12`
Ans. 2

Qu. Fill in the blank: the reported MIC, SA of `CCc1[nH]c2nc(Sc3cnc(N)nc3)nc(N3CC[C@@H](N)C3)c2c1Cl` is ____.
Ans. 8

Qu. Consider the molecule CCc1[nH]c2nc(Sc3ccc4c(N5CCC(N)CC5)nc(C)nc4c3)nc(N3CC4C(N)C4C3)c2c1Cl (stereo not shown) and give its measured MIC, SA.
Ans. 4

Qu. Param item = `CCc1[nH]c2nc(Oc3ccc4cccnc4c3)nc(N3CC[C@@H](N)C3)c2c1Cl` ; retrieve measured MIC, SA.
Ans. 4

Qu. Item CCc1[nH]c2nc(Oc3ccc4nccnc4c3)nc(N3CC4C(C3)C4NC(C)=O)c2c1Cl (stereo not shown) has what recorded MIC, SA?
Ans. 1

Qu. For the molecule shown here, CCc1[nH]c2nc(Sc3cnc(N)nc3)nc(N3CC4C(N)C4C3)c2c1Cl (stereo not shown) , give the reported MIC, SA.
Ans. 2

Qu. Please give the measured MIC, SA for this molecule: `CCc1[nH]c2nc(Sc3cncc(N)c3)nc(N3CC[C@@H](N)C3)c2c1Cl`
Ans. 16
